- target under test: HLA-A*11:01
- assay text: IEDB peptide-MHC binding, purified MHC/competitive/radioactivity; filed as Kd, often an IC50 or EC50 that approximates it; bounds were set here for any values at or beyond the usual limits of such assays
- condition set: source organism: Dengue virus 4 Philippines/H241/1956
pKd: −log10 of the molar value.

| sequence string | pKd |
| --- | --- |
| IVSSVNTTSK | 6.63 |

* * *

- target under test: HLA-A*02:01
- assay text: IEDB peptide-MHC binding, purified MHC/direct/fluorescence; filed as Kd, often an IC50 or EC50 that approximates it; bounds were set here for any values at or beyond the usual limits of such assays
- condition set: source organism: Mycobacterium tuberculosis C
pKd: −log10 of the molar value.

| sequence string | pKd |
| --- | --- |
| IIRTENRPL | ≤ 4.70 |

* * *

- target under test: HLA-B*18:01
- assay text: IEDB peptide-MHC binding, purified MHC/competitive/fluorescence; filed as Kd, often an IC50 or EC50 that approximates it; bounds were set here for any values at or beyond the usual limits of such assays
- condition set: source organism: Araucaria virus
pKd: −log10 of the molar value.

| sequence string | pKd |
| --- | --- |
| ELRQLAQSL | ≤ 4.70 |

* * *

- target under test: HLA-B*15:01
- assay text: IEDB peptide-MHC binding, purified MHC/direct/fluorescence; filed as Kd, often an IC50 or EC50 that approximates it; bounds were set here for any values at or beyond the usual limits of such assays
- condition set: source organism: Yellow fever virus
readout type: Kd (nM)

| sequence string | readout type | value |
| --- | --- | --- |
| KMLDPRQGL | Kd | 808 |

* * *

- target under test: HLA-B*15:01
- assay text: IEDB peptide-MHC binding, purified MHC/direct/fluorescence; filed as Kd, often an IC50 or EC50 that approximates it; bounds were set here for any values at or beyond the usual limits of such assays
- condition set: source organism: Zaire ebolavirus
pKd: −log10 of the molar value.

| sequence string | target under test | relation | pKd |
| --- | --- | --- | --- |
| ESLLHQASW | HLA-B*15:01 | ≤ | 4.70 |
| GLIQYPTAW | HLA-B*15:01 | = | 5.66 |

* * *

- target under test: HLA-B*51:01
- assay text: IEDB peptide-MHC binding, purified MHC/competitive/fluorescence; filed as Kd, often an IC50 or EC50 that approximates it; bounds were set here for any values at or beyond the usual limits of such assays
- condition set: source organism: Escherichia coli F11
pKd: −log10 of the molar value.

| sequence string | pKd |
| --- | --- |
| GSGDDTWLI | ≤ 4.70 |

* * *

- target under test: HLA-B*58:01
- assay text: IEDB peptide-MHC binding, purified MHC/competitive/fluorescence; filed as Kd, often an IC50 or EC50 that approximates it; bounds were set here for any values at or beyond the usual limits of such assays
- condition set: source organism: Yersinia pestis Nepal516
pKd: −log10 of the molar value.

| sequence string | target under test | pKd |
| --- | --- | --- |
| MTTSMTMSY | HLA-B*58:01 | 7.32 |

* * *

- target under test: HLA-B*73:01
- assay text: IEDB peptide-MHC binding, purified MHC/direct/fluorescence; filed as Kd, often an IC50 or EC50 that approximates it; bounds were set here for any values at or beyond the usual limits of such assays
- condition set: source organism: Giardia lamblia ATCC 50803

| sequence string | target under test | Kd [nM] |
| --- | --- | --- |
| YRYKMPVME | HLA-B*73:01 | 1620 |
